System: LXRa:RXRa (NR concentration 270 nM, RXRa partner concentration 90 nM)
Experiment: PBM binding z-score (relative to random genomic background probes); higher = stronger binding; sequences stand for … in GC…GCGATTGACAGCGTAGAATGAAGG
Each entry belongs to exactly one class, chosen by where its PBM binding z-score falls: interval 1 (below 2), interval 2 (2 to below 4), interval 3 (4 or more)

The examples below pair each entry with its known result.
> print(dat)
                       residue.string  discrete.label
1  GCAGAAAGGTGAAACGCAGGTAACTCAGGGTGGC      interval 1
2  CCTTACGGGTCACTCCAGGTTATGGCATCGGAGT      interval 3
3  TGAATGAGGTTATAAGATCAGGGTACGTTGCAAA      interval 1
4  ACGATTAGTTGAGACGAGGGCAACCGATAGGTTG      interval 1
5  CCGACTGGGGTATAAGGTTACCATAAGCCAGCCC      interval 1

Qu. Any idea which band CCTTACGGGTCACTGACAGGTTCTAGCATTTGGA is in?
Ans. interval 2

Qu. Class? Entry: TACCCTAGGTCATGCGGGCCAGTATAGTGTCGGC
Ans. interval 3

Qu. Kindly state the category for this sequence: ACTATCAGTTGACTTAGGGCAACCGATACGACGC
Ans. interval 1

Qu. Band for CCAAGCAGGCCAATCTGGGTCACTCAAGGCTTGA ?
Ans. interval 1

Qu. Category of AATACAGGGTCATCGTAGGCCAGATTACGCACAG :
Ans. interval 3

---

System: PPARg DBDmut:RXRa IVT, anti-PPARg (DBD mutation: PPARg1 K132A/R137A, NR concentration 270 nM, RXRa partner concentration 90 nM)
Test: PBM binding z-score (relative to random genomic background probes); higher = stronger binding; sequences stand for … in GC…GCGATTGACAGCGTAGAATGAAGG
Endpoint: PBM binding z-score

> print(dat)
                       residue.string             endpoint  endpoint.value
1  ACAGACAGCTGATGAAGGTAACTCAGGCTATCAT  PBM binding z-score           0.246
2  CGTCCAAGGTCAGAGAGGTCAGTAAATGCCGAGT  PBM binding z-score           0.177
3  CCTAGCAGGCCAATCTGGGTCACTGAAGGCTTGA  PBM binding z-score           0.524
4  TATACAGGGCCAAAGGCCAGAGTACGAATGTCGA  PBM binding z-score           0.275

State recorded PBM binding z-score for all listed sequences.
1. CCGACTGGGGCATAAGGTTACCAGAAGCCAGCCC
2. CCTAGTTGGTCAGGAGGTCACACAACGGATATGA
3. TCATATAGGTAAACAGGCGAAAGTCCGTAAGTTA

Ans.
-1.29
0.747
0.751

---

System: RARa homodimer (NR concentration 270 nM)
Experiment: PBM binding z-score (relative to random genomic background probes); higher = stronger binding; sequences stand for … in GC…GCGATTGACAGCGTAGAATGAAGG
True means recorded PBM binding z-score is 0.9 or above; False means it is below 0.9.

Use these answered entries as a reference point.
> print(dat)
                       residue.string  discrete.label
1  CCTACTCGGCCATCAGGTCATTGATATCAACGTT            True
2  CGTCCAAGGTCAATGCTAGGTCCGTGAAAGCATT            True

Qu. Answer whether PBM binding z-score of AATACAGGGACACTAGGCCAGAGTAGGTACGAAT is greater than or equal to 0.9.
Ans. False

Qu. Could you verify whether the entry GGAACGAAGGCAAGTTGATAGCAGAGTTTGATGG shows PBM binding z-score of no less than 0.9?
Ans. False

Qu. Reported PBM binding z-score reaches at least 0.9 for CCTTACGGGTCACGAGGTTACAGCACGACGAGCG ?
Ans. True

Qu. Kindly determine if PBM binding z-score recorded for AGTCAAAATTCATCTAGGTAACGTAAGATATGCT is above or exactly 0.9.
Ans. False

Qu. Does PBM binding z-score meet or surpass 0.9 for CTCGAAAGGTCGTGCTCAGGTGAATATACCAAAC ?
Ans. False

Qu. Decide: is the reported value of PBM binding z-score for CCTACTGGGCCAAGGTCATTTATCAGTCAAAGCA equal to or greater than 0.9?
Ans. False

Qu. Tell me whether PBM binding z-score is at least 0.9 here: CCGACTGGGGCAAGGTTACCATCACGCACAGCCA
Ans. False

Qu. API: above_or_equal(metric=PBM binding z-score, cutoff=0.9) for item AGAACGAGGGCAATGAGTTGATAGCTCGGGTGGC
Ans. False

Qu. Is the recorded value of PBM binding z-score equal to or greater than 0.9 for this sequence? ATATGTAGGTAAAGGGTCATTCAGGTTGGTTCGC
Ans. True
